Target: SARS-CoV-2 3CL^pro (Severe acute respiratory syndrome coronavirus 2, UniProt P0DTD1)
Just so you know, the groups by IC50 go like this: bin A = under 10 nM, bin B = from 10 nM up to 30 nM, bin C = 30 nM and over

Which of the defined bands does the recorded IC50 of C[C@@H]1C[C@H](CN(NC(=O)[C@@H]2[C@@H]3[C@H](CN2C(=O)[C@@H](NC(=O)[C@@H]2CC2(F)F)C(C)(C)C)C3(C)C)C(=O)[C@@H](F)Cl)C(=O)N1 sit within?
bin C

Which bin, given its IC50, does CCC(CC)[C@H](NC(=O)C(F)F)C(=O)N1C[C@@H]2CCC[C@@H]2[C@H]1C(=O)NN(C[C@@H]1CC(C)(C)NC1=O)C(=O)[C@@H](F)Cl occupy?
bin A

Sort CC1(C)C[C@@H](CN(NC(=O)[C@@H]2[C@@H]3[C@H](CN2C(=O)[C@@H](NC(=O)[C@@H](F)Cl)C(C)(C)C)C3(C)C)C(=O)[C@@H](F)Cl)C(=O)N1 into one of the categories.
bin C

# bin label for CC(C)(C)[C@H](NC(=O)[C@@H]1CC1(F)F)C(=O)N1C[C@@H]2CCC[C@@H]2[C@H]1C(=O)NN(C[C@H]1CC2(CC2)NC1=O)C(=O)[C@H](F)Cl
bin B

Form field 'band' for CC(C)(C)[C@H](NC(=O)[C@@H]1CC1(F)F)C(=O)N1C[C@@H]2CCC[C@@H]2[C@H]1C(=O)NN(C[C@@H]1CC2(CC2)NC1=O)C(=O)[C@H](F)Cl
bin B

Assign a bin to CCC(CC)[C@H](NC(=O)C(F)F)C(=O)N1C[C@@H]2CCC[C@@H]2[C@H]1C(=O)NN(C[C@H]1CC(C)(C)NC1=O)C(=O)[C@H](F)Cl
bin C

Kindly state the category for this compound: C[C@H]1C[C@H](CN(NC(=O)[C@@H]2[C@@H]3[C@H](CN2C(=O)[C@@H](NC(=O)[C@@H]2CC2(F)F)C(C)(C)C)C3(C)C)C(=O)[C@H](F)Cl)C(=O)N1
bin B

Hello team, could you let me know which band the following compound falls into: CC1(C)C[C@@H](CN(NC(=O)[C@@H]2[C@H]3CCC[C@H]3CN2C(=O)[C@@H](NC(=O)[C@H](F)Cl)C(C)(C)C)C(=O)[C@@H](F)Cl)C(=O)N1
bin B

Textbook exercise: identify the category of the compound given here, CC[C@H](C)[C@H](NC(=O)C1(F)CC1)C(=O)N1C[C@H]2[C@@H]([C@H]1C(=O)NN(C[C@@H]1CC(C)(C)NC1=O)C(=O)[C@H](F)Cl)C2(C)C , according to its measured value.
bin C

Could you tell me which band CC1(C)C[C@H](CN(NC(=O)[C@@H]2[C@H]3CCC[C@H]3CN2C(=O)[C@@H](NC(=O)C(F)F)C(C)(C)C)C(=O)[C@H](F)Cl)C(=O)N1 belongs to?
bin C

// bin(item) where item = CC1(C)C[C@@H](CN(NC(=O)[C@@H]2[C@H]3CCC[C@H]3CN2C(=O)[C@@H](NC(=O)[C@@H]2CC2(F)F)C(C)(C)C)C(=O)[C@@H](F)Cl)C(=O)N1
bin B

Which class does CC(C)(C)[C@H](NC(=O)[C@@H]1CC1(F)F)C(=O)N1C[C@@H]2CCC[C@@H]2[C@H]1C(=O)NN(C[C@H]1C(=O)N[C@H]2C[C@H]21)C(=O)[C@H](F)Cl fall in?
bin B

Which category does the recorded IC50 put CCC(CC)[C@H](NC(=O)C(F)F)C(=O)N1C[C@@H]2CCC[C@@H]2[C@H]1C(=O)NN(C[C@@H]1CC(C)(C)NC1=O)C(=O)[C@H](F)Cl in?
bin A

Category of C[C@H]1C[C@@H](CN(NC(=O)[C@@H]2[C@H]3CCC[C@H]3CN2C(=O)[C@@H](NC(=O)[C@@H]2CC2(F)F)C(C)(C)C)C(=O)[C@H](F)Cl)C(=O)N1 :
bin A

# classify by IC50 band: CC(C)(C)[C@H](NC(=O)[C@@H]1CC1(F)F)C(=O)N1C[C@@H]2CCC[C@@H]2[C@H]1C(=O)NN(C[C@@H]1C(=O)N[C@@H]2C[C@H]12)C(=O)[C@@H](F)Cl
bin C

Entry C[C@H]1C[C@@H](CN(NC(=O)[C@@H]2[C@@H]3[C@H](CN2C(=O)[C@@H](NC(=O)[C@@H]2CC2(F)F)C(C)(C)C)C3(C)C)C(=O)[C@H](F)Cl)C(=O)N1 belongs to which category?
bin A

State the band of CC1(C)C[C@@H](CN(NC(=O)[C@@H]2[C@@H]3[C@H](CN2C(=O)[C@@H](NC(=O)[C@@H]2CC2(F)F)C(C)(C)C)C3(C)C)C(=O)[C@H](F)Cl)C(=O)N1
bin B

Record CC1(C)C[C@@H](CN(NC(=O)[C@@H]2[C@H]3CCC[C@H]3CN2C(=O)[C@@H](NC(=O)[C@H](F)Cl)C(C)(C)C)C(=O)[C@H](F)Cl)C(=O)N1 — which class?
bin A

Dear colleague, I would appreciate it if you could identify the bin for CC(C)(C)[C@H](NC(=O)[C@@H]1CC1(F)F)C(=O)N1C[C@@H]2CCC[C@@H]2[C@H]1C(=O)NN(C[C@H]1C(=O)N[C@H]2C[C@H]21)C(=O)[C@@H](F)Cl and reply at your convenience.
bin B
